Measured target: Prostaglandin G/H synthase 2 (Homo sapiens)
Sequence (P35354 whole entry): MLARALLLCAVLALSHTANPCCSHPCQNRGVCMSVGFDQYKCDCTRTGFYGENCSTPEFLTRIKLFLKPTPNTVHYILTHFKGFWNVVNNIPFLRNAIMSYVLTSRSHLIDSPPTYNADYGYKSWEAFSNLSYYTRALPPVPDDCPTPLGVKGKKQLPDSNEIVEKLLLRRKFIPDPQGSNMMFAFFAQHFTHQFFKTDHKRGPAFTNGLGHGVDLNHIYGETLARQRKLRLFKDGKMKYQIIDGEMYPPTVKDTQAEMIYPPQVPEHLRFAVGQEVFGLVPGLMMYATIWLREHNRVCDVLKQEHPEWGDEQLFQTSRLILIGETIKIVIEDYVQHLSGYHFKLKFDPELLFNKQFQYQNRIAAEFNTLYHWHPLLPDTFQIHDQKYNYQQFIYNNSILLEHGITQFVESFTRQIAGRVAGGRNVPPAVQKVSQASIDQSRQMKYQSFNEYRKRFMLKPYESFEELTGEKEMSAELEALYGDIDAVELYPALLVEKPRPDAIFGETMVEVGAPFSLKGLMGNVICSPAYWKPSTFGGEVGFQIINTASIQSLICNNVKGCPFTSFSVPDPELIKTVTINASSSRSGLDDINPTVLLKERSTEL
Assay explanation: Inhibition of recombinant human COX2 assessed as production of PGF2-alpha preincubated with compound followed by the addition of 5 uM arachidonic acid as substrate by enzyme immunoassay
Quantity measured: IC50

Give its IC50 value. Item: CC(C(=O)O)c1ccc(-c2cccc(OC(=O)NCCCCc3ccccc3)c2)c(F)c1 (racemic)
> 100 µM

Give its IC50 value. Item: CCCCCCNC(=O)Oc1cccc(-c2ccc(C(C)C(=O)OC)cc2F)c1 (racemic)
> 100 µM

Give its IC50 value. Item: CC(C)NC(=O)Oc1cccc(-c2ccc(C(C)C(=O)O)cc2F)c1 (racemic)
> 100 µM

Give its IC50 value. Item: CC(C(=O)O)c1ccc(-c2cccc(OC(=O)NC3CCCC3)c2)c(F)c1 (racemic)
> 100 µM

Give its IC50 value. Item: "CCCCCCNC(=O)Oc1cccc(-c2ccc(C(=O)O)cc2F)c1"
> 100 µM

Give its IC50 value. Item: CC(C(=O)O)c1ccc(-c2cccc(OC(=O)NCc3ccccc3)c2)c(F)c1 (racemic)
> 100 µM
